So I've got a bunch of binders here, and I need their Insulin receptor affinity [IC50 relative to HI (%)] values.
biological target: insulin receptor A (UniProt P06213-2 28-1370, limits assumed); test: insulin receptor binding assay as in Vienberg et al. 2011; relative to human insulin on insulin receptor A (100%)
Sequence (P06213 other isoform, or with tags, fused parts or gaps limits assumed): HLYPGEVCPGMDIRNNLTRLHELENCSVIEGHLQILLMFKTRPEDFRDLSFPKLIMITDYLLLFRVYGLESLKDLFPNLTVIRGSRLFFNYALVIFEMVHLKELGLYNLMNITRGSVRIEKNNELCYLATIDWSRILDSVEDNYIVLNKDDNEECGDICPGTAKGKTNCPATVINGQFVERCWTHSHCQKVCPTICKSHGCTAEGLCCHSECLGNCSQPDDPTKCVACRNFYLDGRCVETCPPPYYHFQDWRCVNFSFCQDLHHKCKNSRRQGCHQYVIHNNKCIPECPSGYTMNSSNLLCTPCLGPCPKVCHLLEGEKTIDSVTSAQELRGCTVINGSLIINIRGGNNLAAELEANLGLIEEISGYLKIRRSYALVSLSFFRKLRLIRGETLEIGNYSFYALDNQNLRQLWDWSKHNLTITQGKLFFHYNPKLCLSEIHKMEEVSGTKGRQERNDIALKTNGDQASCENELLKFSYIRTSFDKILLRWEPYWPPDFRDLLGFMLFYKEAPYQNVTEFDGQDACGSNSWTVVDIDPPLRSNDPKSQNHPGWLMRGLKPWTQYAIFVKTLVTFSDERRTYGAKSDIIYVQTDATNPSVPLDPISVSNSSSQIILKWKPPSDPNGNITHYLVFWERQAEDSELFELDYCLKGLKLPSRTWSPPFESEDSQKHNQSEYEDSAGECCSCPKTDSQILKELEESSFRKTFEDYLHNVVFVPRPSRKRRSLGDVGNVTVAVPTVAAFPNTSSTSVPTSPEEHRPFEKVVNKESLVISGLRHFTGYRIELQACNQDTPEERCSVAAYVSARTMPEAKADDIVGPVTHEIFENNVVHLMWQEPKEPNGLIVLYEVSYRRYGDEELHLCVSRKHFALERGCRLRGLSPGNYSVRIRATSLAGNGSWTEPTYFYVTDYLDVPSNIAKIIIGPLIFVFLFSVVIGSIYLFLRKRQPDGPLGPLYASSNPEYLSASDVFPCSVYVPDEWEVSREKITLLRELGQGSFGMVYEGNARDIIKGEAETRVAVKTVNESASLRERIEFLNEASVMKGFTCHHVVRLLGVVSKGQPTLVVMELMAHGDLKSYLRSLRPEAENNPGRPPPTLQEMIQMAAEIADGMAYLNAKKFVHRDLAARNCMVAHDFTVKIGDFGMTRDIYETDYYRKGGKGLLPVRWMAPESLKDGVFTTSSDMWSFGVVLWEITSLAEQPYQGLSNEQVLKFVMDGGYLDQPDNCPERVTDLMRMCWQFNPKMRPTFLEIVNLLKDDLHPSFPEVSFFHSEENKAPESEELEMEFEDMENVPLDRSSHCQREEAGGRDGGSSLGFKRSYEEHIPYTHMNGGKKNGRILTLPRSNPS
Give bare numbers, in %.

Binder | Test Result
(A14E, A21G, A22(GQAP)18, A94G, A95Q, A96A, A97K^, A98P, B16E, B25H, B29R, desB30 human insulin)/(227A, 234A, 235K, 297E, 315Q, 384Q, des447 hIgG4-Fc(228-447)) … (other, Cys229 (EU numbering) sulphur bound to an acetyl arm of the linker; A97K N(eps) acylated by the trivalent linker 4-[bis[2-[(2-acetyl)amino]ethyl]amino]-4-oxo-butanoyl) chain 1: GIVEQCCTSICSLEQLENYCGGQAPGQAPGQAPGQAPGQAPGQAPGQAPGQAPGQAPGQAPGQAPGQAPGQAPGQAPGQAPGQAPGQAPGQAPGQAKP chain 2: FVNQHLCGSHLVEALELVCGERGFHYTPR chain 3: ASCPAPEAKGGPSVFLFPPKPKDTLMISRTPEVTCVVVDVSQEDPEVQFNWYVDGVEVHNAKTKPREEQFESTYRVVSVLTVLHQDWLQGKEYKCKVSNKGLPSSIEKTISKAKGQPREPQVYTLPPSQEEMTKNQVSLTCLVKGFYPSDIAVEWESQGQPENNYKTTPPVLDSDGSFFLYSRLTVDKSRWQEGNVFSCSVMHEALHNHYTQKSLSLSLG | 0.47

# per-item lookup of Insulin receptor affinity [IC50 relative to HI (%)]; items listed below
1. (A14A, A21G, A22(GQAP)18, A94G, A95Q, A96A, A97K^, A98P, B29R, desB30 human insulin)/(227A, 234A, 235K, 297E, 315Q, 384Q, des447 hIgG4-Fc(228-447)) … (other, Cys229 (EU numbering) sulphur bound to an acetyl arm of the linker; A97K N(eps) acylated by the trivalent linker 4-[bis[2-[(2-acetyl)amino]ethyl]amino]-4-oxo-butanoyl, also called Ex 5.25) chain 1: GIVEQCCTSICSLAQLENYCGGQAPGQAPGQAPGQAPGQAPGQAPGQAPGQAPGQAPGQAPGQAPGQAPGQAPGQAPGQAPGQAPGQAPGQAPGQAKP chain 2: FVNQHLCGSHLVEALYLVCGERGFFYTPR chain 3: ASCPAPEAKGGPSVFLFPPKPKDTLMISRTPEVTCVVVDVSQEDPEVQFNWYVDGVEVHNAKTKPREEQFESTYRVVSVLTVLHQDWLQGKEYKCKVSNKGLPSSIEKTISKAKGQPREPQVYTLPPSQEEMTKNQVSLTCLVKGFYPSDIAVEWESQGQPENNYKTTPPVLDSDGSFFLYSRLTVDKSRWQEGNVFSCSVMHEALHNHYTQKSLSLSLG
2. A14E, A21G, A22(GQEP)19, A98K^, A99P, B3Q, B25H, B29R, desB30 human insulin/(227A, 234A, 235K hIgG4-Fc(228-447)) … (other, Cys229 (EU numbering) sulphur bound to an acetyl arm of the linker; A98K N(eps) acylated by the trivalent linker 4-[bis[2-[(2-acetyl)amino]ethyl]amino]-4-oxo-butanoyl, also called Ex 5.6) chain 1: GIVEQCCTSICSLEQLENYCGGQEPGQEPGQEPGQEPGQEPGQEPGQEPGQEPGQEPGQEPGQEPGQEPGQEPGQEPGQEPGQEPGQEPGQEPGQEPKP chain 2: FVQQHLCGSHLVEALYLVCGERGFHYTPR chain 3: ASCPAPEAKGGPSVFLFPPKPKDTLMISRTPEVTCVVVDVSQEDPEVQFNWYVDGVEVHNAKTKPREEQFNSTYRVVSVLTVLHQDWLNGKEYKCKVSNKGLPSSIEKTISKAKGQPREPQVYTLPPSQEEMTKNQVSLTCLVKGFYPSDIAVEWESNGQPENNYKTTPPVLDSDGSFFLYSRLTVDKSRWQEGNVFSCSVMHEALHNHYTQKSLSLSLGK
3. A14E, A21G, A22(GQEP)12, A70K^, A71P, B25H, B29R, desB30 human insulin/(227A, 234A, 235K hIgG4-Fc(228-447)) … (other, Cys229 (EU numbering) sulphur bound to an acetyl arm of the linker; A70K N(eps) acylated by the trivalent linker 4-[bis[2-[(2-acetyl)amino]ethyl]amino]-4-oxo-butanoyl, also called Ex 5.8) chain 1: GIVEQCCTSICSLEQLENYCGGQEPGQEPGQEPGQEPGQEPGQEPGQEPGQEPGQEPGQEPGQEPGQEPKP chain 2: FVNQHLCGSHLVEALYLVCGERGFHYTPR chain 3: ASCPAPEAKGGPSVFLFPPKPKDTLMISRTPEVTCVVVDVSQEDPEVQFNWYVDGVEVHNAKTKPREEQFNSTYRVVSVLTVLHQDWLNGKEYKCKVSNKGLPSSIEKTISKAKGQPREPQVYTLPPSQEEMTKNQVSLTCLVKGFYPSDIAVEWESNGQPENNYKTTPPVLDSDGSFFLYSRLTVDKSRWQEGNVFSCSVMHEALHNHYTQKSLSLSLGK

Result:
1. 4.49
2. 5.07
3. 10.6
